Biological target: T1, recombinant human IL-17A-mFc protein (human, UniProt Q16552 24-155, Biotinylated before the blocking assays of Examples 9 and 12 (sites not given); disulfide-linked dimer through IL-17A and the Fc.)
T1 construct: also called recombinant fusion protein IL-17A-mFc
T1 sequence: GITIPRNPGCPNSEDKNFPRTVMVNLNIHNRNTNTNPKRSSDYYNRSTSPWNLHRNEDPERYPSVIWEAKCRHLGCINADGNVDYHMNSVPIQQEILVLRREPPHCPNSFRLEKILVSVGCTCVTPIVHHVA
Test: ELISA, human IL-17A-mFc (0.5 µg/mL) coated, biotinylated anti-IgG4 detection
measurement-label: EC50 (ng/mL)
Numbers only here, please. The scale is ng/mL.

Task item: Please look up its EC50: chimeric antibody ch1 (antibody, V domains shown) VH: QIQLVQSGPELKKPGETVKISCKASGYIFTNYGMNWMKQAPGKGLKWMGWINDHTGEPTYADDFKGRFAFSLETSASTAYLQINNLKKEDTATYFCANYGFGYFDYWGQGTTLTVSS VL: DVVMTQTPLSLPVSLGDQASISCRSSQSLVHSNGNSYLHWYLQKPGQSPKLLIYKVSNRFSGVPDRFSGSGSGTDFTLKISRVEAEDLGVYFCSQSTHVPYTFGGGTKLEIK
Reply: 6.62
